Subject Of Test: hCMKLR1 (Homo sapiens, UniProt Q99788)
Sequence (Q99788 whole entry): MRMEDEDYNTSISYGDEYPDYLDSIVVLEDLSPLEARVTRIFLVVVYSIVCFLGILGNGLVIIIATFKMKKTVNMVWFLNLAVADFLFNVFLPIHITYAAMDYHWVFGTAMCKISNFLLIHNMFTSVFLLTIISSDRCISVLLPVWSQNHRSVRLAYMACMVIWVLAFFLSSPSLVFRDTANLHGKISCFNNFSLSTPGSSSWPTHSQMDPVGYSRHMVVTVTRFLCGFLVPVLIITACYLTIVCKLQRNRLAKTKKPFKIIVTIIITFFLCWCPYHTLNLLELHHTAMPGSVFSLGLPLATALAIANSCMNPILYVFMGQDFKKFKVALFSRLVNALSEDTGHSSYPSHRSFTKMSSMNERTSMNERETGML
Test Description: Calcium flux assay in COS-7 cells transfected with hCMKLR1_eYFP_GαΔ6qi4myr
Cond: pEC50 ± SEM, Ca^2+ flux
*1 amine or outer side, *2 acyl side, *3 side chain or, on linkers, in order; H or OH if unused. Where a SMILES comes first, the peptide text is derived from it. Bridges are numbered along the chain shown (N, C = ends). [ ]: non-standard residue; d: D form. hCys = N[C@@H](CCS)C(=O)O; CH2 = C([*:1])[*:2]
Result Type: EC50 (nM)
Numbers only here, please. The scale is nM.

Item C[C@@H]1NC(=O)[C@H](Cc2ccccc2)NC(=O)[C@H](CCC(N)=O)NC(=O)[C@H](NC(=O)[C@@H]2CCCN2C(=O)[C@H](Cc2ccccc2)NC(=O)[C@@H](N)Cc2ccc(O)cc2)CSSC[C@@H](C(=O)O)NC(=O)[C@H](Cc2ccccc2)NC1=O [Compound 4, YFP(cQFAFC)] (H-YFP[dC]QFAFC-OH; disulfide 4-9) has what recorded EC50?
64.3

Item C[C@@H]1NC(=O)[C@H](Cc2ccccc2)NC(=O)[C@H](CCC(N)=O)NC(=O)[C@H](NC(=O)[C@@H]2CCCN2C(=O)[C@H](Cc2ccccc2)NC(=O)[C@@H](N)Cc2ccc(O)cc2)CSCSCC[C@@H](C(=O)O)NC(=O)[C@H](Cc2ccccc2)NC1=O [Compound 6, YFP(c(CH2)QFAFX)] (H-YFP[dC]QFAF[hCys]-OH; linker 4-9 via CH2) has what recorded EC50?
37.2

Item C[C@@H]1NC(=O)[C@H](Cc2ccccc2)NC(=O)[C@H](CCC(N)=O)NC(=O)[C@H](NC(=O)[C@@H]2CCCN2C(=O)[C@H](Cc2ccccc2)NC(=O)[C@H](N)Cc2ccc(O)cc2)CSCSCC[C@@H](C(=O)O)NC(=O)[C@H](Cc2ccccc2)NC1=O [Compound 10, yFP(c(CH2)QFAFX)] (H-[dY]FP[dC]QFAF[hCys]-OH; linker 4-9 via CH2) has what recorded EC50?
28

Item C[C@@H]1NC(=O)[C@H](Cc2ccccc2)NC(=O)[C@H](CCC(N)=O)NC(=O)[C@H](NC(=O)[C@@H]2CCCN2C(=O)[C@H](Cc2ccccc2)NC(=O)[C@@H](N)Cc2ccc(O)cc2)CSCSC[C@@H](C(=O)O)NC(=O)[C@H](Cc2ccccc2)NC1=O [Compound 5, YFP(c(CH2)QFAFC)] (H-YFP[dC]QFAFC-OH; linker 4-9 via CH2) has what recorded EC50?
12.9

* * *

Test Description: Investigation of plasma stability (Tam-labeled peptides, RP-HPLC)
Assay type: in vitro ADME
Cond: Tam-modified peptides, 10^−5 M in human blood plasma, 37 °C; one-phase decay
*1 amine or outer side, *2 acyl side, *3 side chain or, on linkers, in order; H or OH if unused. Where a SMILES comes first, the peptide text is derived from it. Bridges are numbered along the chain shown (N, C = ends). [ ]: non-standard residue; d: D form. The star is where a group is joined. X1 = CN(C)c1ccc2c(c1)Oc1cc(N(C)C)ccc1C21OC(=O)c2ccc(C(=O)*)cc21; PEG4 = NCCOCCOCCOCCOCCC(=O)O; d(hCys) = N[C@H](CCS)C(=O)O; hCys = N[C@@H](CCS)C(=O)O; CH2 = C([*:1])[*:2]
# half-life per record follows

Examples with their reported half-life follow.
- C[C@@H]1NC(=O)[C@H](Cc2ccccc2)NC(=O)[C@H](CCC(N)=O)NC(=O)[C@H](NC(=O)[C@@H]2CCCN2C(=O)[C@H](Cc2ccccc2)NC(=O)[C@H](Cc2ccc(O)cc2)NC(=O)c2ccc3c(c2)C2(OC3=O)c3ccc(N(C)C)cc3Oc3cc(N(C)C)ccc32)CSCSCC[C@@H](C(=O)O)NC(=O)[C@H](Cc2ccccc2)NC1=O [Compound 6T, Tam-YFP(c(CH2)QFAFX)] (X1-YFP[dC]QFAF[hCys]-OH; linker 4-9 via CH2): > 24 h
- CN(C)c1ccc2c(c1)Oc1cc(N(C)C)ccc1C21OC(=O)c2ccc(C(=O)NCCCC[C@@H]3NC(=O)[C@H](Cc4ccccc4)NC(=O)[C@H](CCC(N)=O)NC(=O)[C@H](NC(=O)[C@@H]4CCCN4C(=O)[C@H](Cc4ccccc4)NC(=O)[C@@H](N)Cc4ccc(O)cc4)CSSC[C@@H](C(=O)O)NC(=O)[C@H](Cc4ccccc4)NC3=O)cc21 [Compound 7T, YFP(cQFK(Tam)FC)] (H-YFP[dC]QFK(X1)FC-OH; disulfide 4-9): < 0.2 h
- C[C@@H]1NC(=O)[C@H](Cc2ccccc2)NC(=O)[C@H](CCC(N)=O)NC(=O)[C@H](NC(=O)[C@@H]2CCCN2C(=O)[C@H](Cc2ccccc2)NC(=O)[C@H](Cc2ccc(O)cc2)NC(=O)CCOCCOCCOCCOCCNC(=O)c2ccc3c(c2)C2(OC3=O)c3ccc(N(C)C)cc3Oc3cc(N(C)C)ccc32)CCSSC[C@@H](C(=O)O)NC(=O)[C@H](Cc2ccccc2)NC1=O [Compound 12T, Tam-EG(4)-YFP(xQFAFC)] ({X1-PEG4}-YFP[d(hCys)]QFAFC-OH; disulfide 4-9): > 48 h
- CN(C)c1ccc2c(c1)Oc1cc(N(C)C)ccc1C21OC(=O)c2ccc(C(=O)N[C@@H](Cc3ccc(O)cc3)C(=O)N[C@@H](Cc3ccccc3)C(=O)N3CCC[C@H]3C(=O)N[C@@H]3CSCSC[C@@H](C(=O)N[C@@H](Cc4ccccc4)C(=O)N[C@@H](CO)C(=O)O)NC(=O)[C@H](Cc4ccccc4)NC(=O)[C@H](CCC(N)=O)NC3=O)cc21 [Compound 3T, Tam-YFP(c(CH2)QFCFS)] (X1-YFP[dC]QFCFS-OH; linker 4-7 via CH2): 0.3 h

Let us examine a further case.
Item C[C@@H]1NC(=O)[C@H](Cc2ccccc2)NC(=O)[C@H](CCC(N)=O)NC(=O)[C@H](NC(=O)[C@@H]2CCCN2C(=O)[C@H](Cc2ccccc2)NC(=O)[C@H](Cc2ccc(O)cc2)NC(=O)c2ccc3c(c2)C2(OC3=O)c3ccc(N(C)C)cc3Oc3cc(N(C)C)ccc32)CSCSC[C@@H](C(=O)O)NC(=O)[C@H](Cc2ccccc2)NC1=O [Compound 5T, Tam-YFP(c(CH2)QFAFC)] (X1-YFP[dC]QFAFC-OH; linker 4-9 via CH2) has what recorded half-life?
> 24 h
